# Test system: Fusarium oxysporum
# experiment.notes: Test 2 for antifungal effect, plate medium: F.c
# Assay type: cell-based
# experimental.setup: 0.63 mg/L, PDA plate medium
assay.endpoint: Antifungal index (mycelial growth inhibition rate)

Need Antifungal index (mycelial growth inhibition rate) of CC1(CCl)CCC(Cc2ccc(Cl)cc2)C1(O)Cn1cncn1 (single isomer, unassigned) [Compound (1-1b)] , thanks.
5 (90% or greater)

For CC1(CCl)CCC(Cc2ccc(Cl)cc2)C1(O)Cn1cncn1 (single isomer, unassigned) [Compound (1-1a)] then?
5 (90% or greater)

For CC1(CCl)CCC(Cc2ccc(F)cc2)C1(O)Cn1cncn1 (single isomer, unassigned) [Compound (1-2a)] then?
4 (Less than 90% but not less than 80%)

For CC1(CCl)CCC(Cc2ccc(F)cc2)C1(O)Cn1cncn1 (single isomer, unassigned) [Compound (1-2b)] then?
5 (90% or greater)
